biological target: CCKB (Mus musculus); construct: The cortex was dissected, weighed and homogenised in 40 ml ice-cold buffer; from tissue; host or cells: cerebral cortex membranes of male CD1 mice (Charles River); assay: radioligand binding assay at the CCKB (CCK8 [sic]) receptor in mouse cortical membranes; settings: [125I]-CCK8S 200 pM, 150 min at 21±3° C.
Sequence (P56481 whole entry): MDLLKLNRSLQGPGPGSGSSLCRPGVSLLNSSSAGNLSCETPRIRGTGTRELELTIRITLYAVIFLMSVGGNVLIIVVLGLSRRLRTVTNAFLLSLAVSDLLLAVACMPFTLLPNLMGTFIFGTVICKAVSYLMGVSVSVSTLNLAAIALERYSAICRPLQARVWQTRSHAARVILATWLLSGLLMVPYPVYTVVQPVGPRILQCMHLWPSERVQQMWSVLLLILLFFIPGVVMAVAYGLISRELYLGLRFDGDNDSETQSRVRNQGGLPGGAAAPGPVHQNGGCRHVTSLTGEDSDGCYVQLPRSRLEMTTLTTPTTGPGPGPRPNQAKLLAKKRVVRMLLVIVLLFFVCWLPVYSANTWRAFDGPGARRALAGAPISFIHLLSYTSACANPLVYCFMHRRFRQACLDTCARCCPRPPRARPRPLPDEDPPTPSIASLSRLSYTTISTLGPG
measure: CCKB pKi
Number, no unit, nothing else.

smiles-repr	assayed-target	CCKB pKi
O=C(O)c1cc(NC(=O)[C@H](Cc2ccccc2F)NC(=O)c2ccccc2C(=O)NCC23CC4CC(CC(C4)C2)C3)cc(C(=O)O)c1	CCKB (Mus musculus)	7.0
O=C(O)c1cc(NC(=O)[C@H](Cc2ccccc2)NC(=O)c2cocc2C(=O)NCC23CC4CC(CC(C4)C2)C3)cc(C(=O)O)c1	CCKB (Mus musculus)	6.3

Give the measured CCKB pKi of "O=C(O)c1cc(NC(=O)[C@H](Cc2ccccc2)NC(=O)c2ccccc2C(=O)NCc2cccc3ccccc23)cc(C(=O)O)c1" .
6.3
